# test.description: Volume of distribution at steady state in jugular and femoral vein precannulated Sprague-Dawley rat at 1 mg/kg, iv by LC/MS/MS analysis
# Format: ADME, organism-based
# Parameters: dose 1 mg/kg, route intravenous
# measurement.setup: in vivo, read-out: Vdss
recorded.metric: Vd (L/kg)
Answers are plain numbers, in L/kg.

molecule | measured.result
Cn1ccnc1C(=O)N1CCC(c2ccc(C(=O)NC(=N)N)cc2C(F)(F)F)CC1 | 1.4
N#Cc1ccc(C(=O)N2CCC(c3ccc(C(=O)NC(=N)N)cc3C(F)(F)F)CC2)cc1 | 6.5
COCC(=O)N1CCC(c2ccc(C(=O)NC(=N)N)cc2C(F)(F)F)CC1 | 1.3

# input for lookup
What value of Vd has been reported for the following molecule? N=C(N)NC(=O)c1ccc(N2CCN(C(=O)c3ccc[nH]3)CC2)c(C(F)(F)F)c1 [SABIPORIDE]
1.3

---

// UniProt:P08684 pIC50 records
Sequence (P08684 whole entry): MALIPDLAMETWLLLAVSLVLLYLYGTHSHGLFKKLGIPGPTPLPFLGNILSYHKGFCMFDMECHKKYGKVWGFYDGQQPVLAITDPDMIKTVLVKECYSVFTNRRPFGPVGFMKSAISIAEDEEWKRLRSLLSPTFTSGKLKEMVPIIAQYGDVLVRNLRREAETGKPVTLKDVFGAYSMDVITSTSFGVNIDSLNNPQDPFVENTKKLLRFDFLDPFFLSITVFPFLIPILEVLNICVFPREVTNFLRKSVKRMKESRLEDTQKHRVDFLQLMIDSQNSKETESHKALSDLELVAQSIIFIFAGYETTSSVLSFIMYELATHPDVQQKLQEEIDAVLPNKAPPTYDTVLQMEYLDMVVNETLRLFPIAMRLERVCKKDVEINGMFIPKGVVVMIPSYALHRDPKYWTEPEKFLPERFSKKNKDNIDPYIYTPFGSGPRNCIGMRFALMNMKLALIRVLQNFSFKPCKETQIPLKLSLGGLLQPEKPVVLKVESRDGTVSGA
Answers are plain numbers, as −log10 of the molar value.

molecule | pIC50
N=C(N)NC(=O)c1ccc(C2CCN(C(=O)C3CC3)CC2)c(C(F)(F)F)c1 | 4.80
Cn1cncc1C(=O)N1CCC(c2ccc(C(=O)NC(=N)N)cc2C(F)(F)F)CC1 | 5.52

Dear reader, for each entry below, please note its pIC50.
1. N=C(N)NC(=O)c1ccc(N2CCN(C(=O)c3ccc[nH]3)CC2)c(C(F)(F)F)c1 [SABIPORIDE]
2. N#Cc1cccc(C(=O)N2CCC(c3ccc(C(=O)NC(=N)N)cc3C(F)(F)F)CC2)c1

1: 5.15; 2: 4.66

---

Would you mind telling me the reported MRT of each entry?
# test.description: Mean resident time in jugular and femoral vein precannulated Sprague-Dawley rat at 1 mg/kg, iv by LC/MS/MS analysis
# Assay type: ADME, organism-based
# Set-up: dose 1 mg/kg, route intravenous
# measurement.setup: in vivo
Give bare numbers, in h.

For every listed record, write down its MRT.
1. CC(C)(C)C(=O)N1CCC(c2ccc(C(=O)NC(=N)N)cc2C(F)(F)F)CC1
2. N#Cc1cccc(C(=O)N2CCC(c3ccc(C(=O)NC(=N)N)cc3C(F)(F)F)CC2)c1
3. CC(C)c1ccc(C(=O)NC(=N)N)cc1S(C)(=O)=O [CARIPORIDE]
4. N=C(N)NC(=O)c1cnn(-c2cccc3ncccc23)c1C1CC1 [ZONIPORIDE]
5. CCC(=O)N1CCC(c2cc(C)c(C(=O)NC(=N)N)cc2S(C)(=O)=O)CC1
6. CCC(=O)N1CCC(c2ccc(C(=O)NC(=N)N)cc2C(F)(F)F)CC1
7. Cn1ccnc1C(=O)N1CCC(c2ccc(C(=O)NC(=N)N)cc2C(F)(F)F)CC1

1. 1.5
2. 3.3
3. 0.4
4. 0.6
5. 0.3
6. 5.3
7. 1

---

# study.target: Sodium/hydrogen exchanger 1 (Homo sapiens)
# Sequence (P19634 whole entry): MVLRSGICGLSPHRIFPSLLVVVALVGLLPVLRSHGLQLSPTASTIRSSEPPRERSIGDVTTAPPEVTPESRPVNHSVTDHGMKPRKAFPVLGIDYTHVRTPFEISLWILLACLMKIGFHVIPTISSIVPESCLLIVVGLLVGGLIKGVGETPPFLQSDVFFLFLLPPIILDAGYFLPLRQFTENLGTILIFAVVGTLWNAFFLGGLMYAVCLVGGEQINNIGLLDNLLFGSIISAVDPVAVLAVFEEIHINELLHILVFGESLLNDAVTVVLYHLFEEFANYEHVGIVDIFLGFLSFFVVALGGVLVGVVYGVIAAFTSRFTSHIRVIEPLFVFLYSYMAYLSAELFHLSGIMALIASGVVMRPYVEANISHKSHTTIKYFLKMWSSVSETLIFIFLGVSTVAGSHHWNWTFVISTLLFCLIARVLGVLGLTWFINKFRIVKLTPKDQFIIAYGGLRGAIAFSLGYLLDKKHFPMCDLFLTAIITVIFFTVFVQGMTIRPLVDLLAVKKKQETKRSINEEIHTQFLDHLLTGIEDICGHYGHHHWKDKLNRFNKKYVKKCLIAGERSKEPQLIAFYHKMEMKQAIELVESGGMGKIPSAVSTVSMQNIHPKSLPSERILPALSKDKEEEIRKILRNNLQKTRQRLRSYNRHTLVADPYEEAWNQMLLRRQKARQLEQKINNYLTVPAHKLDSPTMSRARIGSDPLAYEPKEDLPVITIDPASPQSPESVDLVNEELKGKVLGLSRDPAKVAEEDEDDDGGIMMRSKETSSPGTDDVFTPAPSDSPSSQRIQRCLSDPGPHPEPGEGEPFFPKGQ
# test.description: Inhibition of NHE1 in human HT-29 cells assessed as intracellular pH change after 30 mins
recorded.metric: pIC50
One number for each entry, as −log10 of the molar value.

Solved entries (count: 5):
compound | study.target | recorded.metric | measured.result
CC(=O)N1CCC(c2ccc(C(=O)NC(=N)N)cc2C(F)(F)F)CC1 [BI 9627] | Sodium/hydrogen exchanger 1 (Homo sapiens) | pIC50 | 8.22
N=C(N)NC(=O)c1ccc(N2CCC(NC(=O)c3ccc[nH]3)C2)c(C(F)(F)F)c1 (racemic) | Sodium/hydrogen exchanger 1 (Homo sapiens) | pIC50 | 7.44
N=C(N)NC(=O)c1ccc(C2CCN(C(=O)c3ccc(-c4cnco4)cc3)CC2)c(C(F)(F)F)c1 | Sodium/hydrogen exchanger 1 (Homo sapiens) | pIC50 | 6.99
N=C(N)NC(=O)c1ccc(C2CCN(C(=O)c3ccc[nH]3)CC2)c(C(F)(F)F)c1 | Sodium/hydrogen exchanger 1 (Homo sapiens) | pIC50 | 7.35
CC(=O)N1CCC(c2cc(C)c(C(=O)NC(=N)N)cc2C(F)(F)F)CC1 | Sodium/hydrogen exchanger 1 (Homo sapiens) | pIC50 | 8.30

For every record below, what is its pIC50?
1. COc1cc(C2CCN(C(C)=O)CC2)c(C(F)(F)F)cc1C(=O)NC(=N)N
2. N=C(N)NC(=O)c1ccc(C2CCN(C(=O)c3ccc(C(N)=O)cc3)CC2)c(C(F)(F)F)c1
3. CC(C)C(=O)N1CCC(c2ccc(C(=O)NC(=N)N)cc2C(F)(F)F)CC1
4. CCC(=O)N1CCC(c2cc(C)c(C(=O)NC(=N)N)cc2S(C)(=O)=O)CC1
5. N#Cc1cccc(C(=O)N2CCC(c3ccc(C(=O)NC(=N)N)cc3C(F)(F)F)CC2)c1

1. 7.72
2. 7.59
3. 7.55
4. 7.82
5. 7.46

Record request: pIC50 value, item CCC(=O)N1CCC(c2ccc(C(=O)NC(=N)N)cc2C(F)(F)F)CC1
7.96

---

Could you please report measured hepatic extraction ratio at 1 h, 1 µM for the items listed next?
# test.description: Metabolic stability in human liver microsomes at 1 uM up to 60 mins by LC/MS/MS analysis relative to hepatic blood flow
# Format: ADME, Microsome
# measurement.setup: read-out: Stability

chemical.string | hepatic extraction ratio at 1 h, 1 µM
N=C(N)NC(=O)c1ccc(C2CCN(C(=O)C3CC3)CC2)c(C(F)(F)F)c1 | < 0.11
N#Cc1cccc(C(=O)N2CCC(c3ccc(C(=O)NC(=N)N)cc3C(F)(F)F)CC2)c1 | < 0.11

Then there is this compound:
Please give the measured hepatic extraction ratio at 1 h, 1 µM for this compound: CC(=O)N1CCC(c2ccc(C(=O)NC(=N)N)cc2C(F)(F)F)CC1
< 0.11

---

# Test system: Rattus norvegicus
# test.description: Clearance in jugular and femoral vein precannulated Sprague-Dawley rat at 1 mg/kg, iv by LC/MS/MS analysis relative to hepatic blood flow
# Format: ADME, organism-based, Liver
# Parameters: dose 1 mg/kg, route intravenous
# measurement.setup: in vivo
I'd be grateful if you could share measured CL for these entries.
One number for each entry, in %.

chemical.string | result.units | measured.result
N#Cc1ccc(C(=O)N2CCC(c3ccc(C(=O)NC(=N)N)cc3C(F)(F)F)CC2)cc1 | % | 19

Look at each compound and report its CL.
1. CC(C)(C)C(=O)N1CCC(c2ccc(C(=O)NC(=N)N)cc2C(F)(F)F)CC1
2. CCC(=O)N1CCC(c2cc(C)c(C(=O)NC(=N)N)cc2S(C)(=O)=O)CC1
3. Cn1ccnc1C(=O)N1CCC(c2ccc(C(=O)NC(=N)N)cc2C(F)(F)F)CC1
4. CCC(=O)N1CCC(c2ccc(C(=O)NC(=N)N)cc2C(F)(F)F)CC1

29
54
31
4.4

Data request, read-out CL, for CC(=O)N1CCC(c2cc(C)c(C(=O)NC(=N)N)cc2S(C)(=O)=O)CC1
47
